binders and their reported kon
# ASSAY_TARGET: T1, Rat RGMa-His (rat) (UniProt D4A188)
# T1 sequence: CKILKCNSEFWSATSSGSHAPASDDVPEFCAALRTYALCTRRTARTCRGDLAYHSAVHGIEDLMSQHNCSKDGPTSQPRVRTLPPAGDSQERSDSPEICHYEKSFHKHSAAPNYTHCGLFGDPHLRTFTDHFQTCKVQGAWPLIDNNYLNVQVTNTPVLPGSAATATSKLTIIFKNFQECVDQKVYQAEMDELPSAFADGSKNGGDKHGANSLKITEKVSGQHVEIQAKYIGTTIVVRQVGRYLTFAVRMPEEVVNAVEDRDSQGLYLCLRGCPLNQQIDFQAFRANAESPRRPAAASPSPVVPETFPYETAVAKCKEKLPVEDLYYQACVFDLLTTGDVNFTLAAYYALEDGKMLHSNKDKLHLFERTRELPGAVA
# RUN_DESCRIPTION: BIAcore
Quick reminder: number only, in M⁻¹ s⁻¹, skip the unit.

// known answers, use as guide
AE12-1-K (antibody, V domains shown) VH: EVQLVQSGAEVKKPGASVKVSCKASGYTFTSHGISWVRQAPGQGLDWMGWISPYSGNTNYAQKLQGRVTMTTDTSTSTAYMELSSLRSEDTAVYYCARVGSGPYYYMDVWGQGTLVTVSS VL: QSALTQPRSVSGSPGQSVTISCTGTSSSVGDSIYVSWYQQHPGKAPKLMLYDVTKRPSGVPDRFSGSKSGNTASLTISGLQAEDEADYYCKSYAGTDTLFGGGTKVTVL
16000
AE12-1-Y (antibody, V domains shown) VH: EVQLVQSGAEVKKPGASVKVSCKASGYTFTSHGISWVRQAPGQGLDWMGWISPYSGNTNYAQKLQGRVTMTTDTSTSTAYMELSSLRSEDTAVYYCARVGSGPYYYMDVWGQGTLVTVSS VL: QSALTQPRSVSGSPGQSVTISCTGTSSSVGDSIYVSWYQQHPGKAPKLMLYDVTKRPSGVPDRFSGSKSGNTASLTISGLQAEDEADYYCYSYAGTDTLFGGGTKVTVL
14000
AE12-1-I (antibody, V domains shown) VH: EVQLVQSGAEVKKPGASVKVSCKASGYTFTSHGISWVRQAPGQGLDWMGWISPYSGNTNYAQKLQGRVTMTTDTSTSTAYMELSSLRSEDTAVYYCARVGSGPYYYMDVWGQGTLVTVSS VL: QSALTQPRSVSGSPGQSVTISCTGTSSSVGDSIYVSWYQQHPGKAPKLMLYDVTKRPSGVPDRFSGSKSGNTASLTISGLQAEDEADYYCISYAGTDTLFGGGTKVTVL
28000
AE12-1-H (antibody, V domains shown) VH: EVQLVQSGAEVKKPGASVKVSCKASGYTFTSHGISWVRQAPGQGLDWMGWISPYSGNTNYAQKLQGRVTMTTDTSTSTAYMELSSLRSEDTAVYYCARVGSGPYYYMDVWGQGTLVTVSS VL: QSALTQPRSVSGSPGQSVTISCTGTSSSVGDSIYVSWYQQHPGKAPKLMLYDVTKRPSGVPDRFSGSKSGNTASLTISGLQAEDEADYYCHSYAGTDTLFGGGTKVTVL
29000
AE12-1-V (antibody, V domains shown) VH: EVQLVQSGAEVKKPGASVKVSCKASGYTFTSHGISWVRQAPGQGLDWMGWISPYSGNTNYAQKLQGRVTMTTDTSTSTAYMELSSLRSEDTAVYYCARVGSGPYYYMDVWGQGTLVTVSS VL: QSALTQPRSVSGSPGQSVTISCTGTSSSVGDSIYVSWYQQHPGKAPKLMLYDVTKRPSGVPDRFSGSKSGNTASLTISGLQAEDEADYYCVSYAGTDTLFGGGTKVTVL
220000

Consider AE12-1-L (antibody, V domains shown) VH: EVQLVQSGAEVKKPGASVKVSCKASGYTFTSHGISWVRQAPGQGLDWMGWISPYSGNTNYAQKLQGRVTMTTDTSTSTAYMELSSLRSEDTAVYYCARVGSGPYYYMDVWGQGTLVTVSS VL: QSALTQPRSVSGSPGQSVTISCTGTSSSVGDSIYVSWYQQHPGKAPKLMLYDVTKRPSGVPDRFSGSKSGNTASLTISGLQAEDEADYYCLSYAGTDTLFGGGTKVTVL . Its measured kon is 32000
